# pEC50 annotations
# assayProcedure: Inhibition of NS5A in HCV genotype 2b MD2b-1 infected in human HuH7 replicon cells assessed as reduction in viral replication after 3 days by luciferase reporter gene assay
pEC50: −log10 of the molar value.

# querySmiles, pEC50
rows = [
    ("COC[C@H]1C[C@@H](c2ncc(-c3ccc4c(c3)COc3cc5c(ccc6nc([C@@H]7C[C@@H]8C[C@H]8N7C(=O)[C@@H](NC(=O)OC)C(C)C)[nH]c65)cc3-4)[nH]2)N(C(=O)[C@H](NC(=O)OC)c2ccccc2)C1", 10.55),
    ("COC(=O)N[C@H](C(=O)N1[C@@H](C)CC[C@H]1c1ncc(-c2ccc3c(c2)COc2cc4c(ccc5nc([C@@H]6CC[C@H](C)N6C(=O)[C@@H](NC(=O)OC)C(C)C)[nH]c54)cc2-3)[nH]1)C(C)C", 10.20),
    ("COC[C@H]1C[C@@H](c2ncc(-c3ccc4c(c3)COc3cc5c(ccc6nc([C@@H]7C[C@H]8C[C@@H]8N7C(=O)[C@@H](NC(=O)OC)C(C)C)[nH]c65)cc3-4)[nH]2)N(C(=O)[C@H](NC(=O)OC)c2ccccc2)C1", 10.34),
    ("COC[C@H]1C[C@@H](c2ncc(-c3ccc4c(c3)COc3cc5c(ccc6nc([C@@H]7C[C@H](COC)CN7C(=O)[C@@H](NC(=O)OC)C(C)C)[nH]c65)cc3-4)[nH]2)N(C(=O)[C@@H](NC(=O)OC)C(C)C)C1", 9.74),
    ("COC[C@H]1C[C@@H](c2nc3ccc4cc5c(cc4c3[nH]2)OCc2cc(-c3cnc([C@@H]4CCCN4C(=O)[C@@H](NC(=O)OC)C(C)C)[nH]3)ccc2-5)N(C(=O)[C@@H](NC(=O)OC)C(C)C)C1", 9.87),
    ("COC[C@H]1C[C@@H](c2ncc(-c3cc4c5c(c3)OCc3cc(-c6cnc([C@@H]7CC[C@H](C)N7C(=O)[C@@H](NC(=O)OC)C(C)C)[nH]6)cc(c3-5)OC4)[nH]2)N(C(=O)[C@H](NC(=O)OC)c2ccccc2)C1", 9.54),
    ("COC(=O)N[C@H](C(=O)N1CC2(CC2)C[C@H]1c1nc(-c2ccc3c(c2)C(F)(F)c2cc(-c4ccc5[nH]c([C@@H]6[C@H]7CC[C@H](C7)N6C(=O)[C@@H](NC(=O)OC)C(C)C)nc5c4)ccc2-3)c[nH]1)C(C)C", 6.28),
    ("COC(=O)N[C@H](C(=O)N1C[C@@H](C)C[C@H]1c1nc2ccc3cc4c(cc3c2[nH]1)OCc1cc(-c2cnc([C@@H]3C[C@H](C)CN3C(=O)[C@H](NC(=O)OC)c3ccccc3)[nH]2)ccc1-4)C(C)C", 10.57),
    ("COC[C@H]1C[C@@H](c2nc3ccc4cc5c(cc4c3[nH]2)OCc2cc(-c3cnc([C@@H]4CC[C@H](C)N4C(=O)[C@@H](NC(=O)OC)C(C)C)[nH]3)ccc2-5)N(C(=O)[C@@H](NC(=O)OC)C(C)C)C1", 9.80),
    ("CCO[C@H]1C[C@@H](c2nc3ccc4cc5c(cc4c3[nH]2)OCc2cc(-c3cnc([C@@H]4CCCN4C(=O)[C@@H](NC(=O)OC)C(C)C)[nH]3)ccc2-5)N(C(=O)[C@@H](NC(=O)OC)C(C)C)C1", 9.58),
    ("COC[C@H]1C[C@@H](c2nc3ccc4cc5c(cc4c3[nH]2)OCc2cc(-c3cnc([C@@H]4C[C@H](C)CN4C(=O)[C@@H](NC(=O)OC)C(C)C)[nH]3)ccc2-5)N(C(=O)[C@@H](NC(=O)OC)C(C)C)C1", 9.78),
    ("COC[C@H]1C[C@@H](c2ncc(-c3ccc4c(c3)COc3cc5c(ccc6nc([C@@H]7CCCN7C(=O)[C@@H](NC(=O)OC)C(C)C)[nH]c65)cc3-4)[nH]2)N(C(=O)[C@H](NC(=O)OC)c2ccccc2)C1", 11.05),
    ("COC(=O)N[C@H](C(=O)N1CCC[C@H]1c1ncc(-c2ccc3c(c2)COc2cc4c(ccc5nc([C@@H]6C[C@H](C)CN6C(=O)[C@@H](NC(=O)OC)C(C)C)[nH]c54)cc2-3)[nH]1)C(C)C", 9.88),
    ("COC[C@H]1C[C@@H](c2nc(-c3ccc4c(c3)COc3cc5c(ccc6nc([C@@H]7CC[C@H](C)N7C(=O)[C@@H](NC(=O)OC)C(C)C)[nH]c65)cc3-4)c[nH]2)N(C(=O)[C@H](NC(=O)OC)c2ccccc2)C1", 11.22),
    ("COC(=O)N[C@H](C(=O)N1[C@@H](C)CC[C@H]1c1nc2ccc3cc4c(cc3c2[nH]1)OCc1cc(-c2cnc([C@@H]3C[C@H](C)CN3C(=O)[C@H](NC(=O)OC)c3ccccc3)[nH]2)ccc1-4)C(C)C", 10.82),
    ("COC[C@H]1C[C@@H](c2ncc(-c3ccc4c(c3)COc3cc5c(ccc6nc([C@@H]7C[C@H](C)CN7C(=O)[C@@H](NC(=O)OC)C(C)C)[nH]c65)cc3-4)[nH]2)N(C(=O)[C@H](NC(=O)OC)c2ccccc2)C1", 10.82),
]

###

Measured EC50, listed per entry for reference.
# assayProcedure: Inhibition of NS5A in HCV genotype 6e D88 infected in human HuH7 replicon cells assessed as reduction in viral replication after 3 days by luciferase reporter gene assay

# compound, EC50, nM
records = [
    ("COC(=O)N[C@H](C(=O)N1CC2(CC2)C[C@H]1c1nc(-c2ccc3c(c2)C(F)(F)c2cc(-c4ccc5[nH]c([C@@H]6[C@H]7CC[C@H](C7)N6C(=O)[C@@H](NC(=O)OC)C(C)C)nc5c4)ccc2-3)c[nH]1)C(C)C [CHEBI:85089]", 264),
    ("COC(=O)N[C@H](C(=O)N1CCC[C@H]1c1ncc(-c2cc3c4c(c2)OCc2cc(-c5cnc([C@@H]6CCCN6C(=O)[C@@H](NC(=O)OC)C(C)C)[nH]5)cc(c2-4)OC3)[nH]1)C(C)C", 1.16),
    ("COC[C@H]1C[C@@H](c2nc(-c3ccc4c(c3)COc3cc5c(ccc6nc([C@@H]7CC[C@H](C)N7C(=O)[C@@H](NC(=O)OC)C(C)C)[nH]c65)cc3-4)c[nH]2)N(C(=O)[C@H](NC(=O)OC)c2ccccc2)C1 [GS-5816]", 0.13),
    ("COC[C@H]1C[C@@H](c2ncc(-c3cc4c5c(c3)OCc3cc(-c6cnc([C@@H]7CC[C@H](C)N7C(=O)[C@@H](NC(=O)OC)C(C)C)[nH]6)cc(c3-5)OC4)[nH]2)N(C(=O)[C@H](NC(=O)OC)c2ccccc2)C1", 0.11),
]

###

# assayProcedure: Inhibition of NS5A in HCV genotype 3a S52 infected in human HuH7 transient chimeric replicon cells assessed as reduction in viral replication after 3 days by luciferase reporter gene assay

# querySmiles, displayUnit, EC50
rows = [
    ("COC(=O)N[C@H](C(=O)N1CCC[C@H]1c1ncc(-c2ccc3c(c2)COc2cc4c(ccc5nc([C@@H]6CCCN6C(=O)[C@H](NC(=O)OC)c6ccccc6)[nH]c54)cc2-3)[nH]1)C(C)C", "pM", 5),
    ("COC(=O)N[C@@H](C(=O)N1[C@@H](C)CC[C@H]1c1ncc(-c2cc3c4c(c2)OCc2cc(-c5cnc([C@@H]6CC[C@H](C)N6C(=O)[C@H](NC(=O)OC)c6ccccc6)[nH]5)cc(c2-4)OC3)[nH]1)c1ccccc1", "pM", 4),
    ("COC(=O)N[C@H](C(=O)N1CCC[C@H]1c1ncc(-c2ccc3c(c2)COc2cc4c(ccc5nc([C@@H]6CCCN6C(=O)[C@@H](NC(=O)OC)C(C)C)[nH]c54)cc2-3)[nH]1)C(C)C", "pM", 4),
    ("COC[C@H]1C[C@@H](c2ncc(-c3ccc4c(c3)COc3cc5c(ccc6nc([C@@H]7CCCN7C(=O)[C@@H](NC(=O)OC)C(C)C)[nH]c65)cc3-4)[nH]2)N(C(=O)[C@H](NC(=O)OC)c2ccccc2)C1", "pM", 17),
    ("COC(=O)N[C@H](C(=O)N1[C@@H](C)CC[C@H]1c1ncc(-c2ccc3c(c2)COc2cc4c(ccc5nc([C@@H]6CC[C@H](C)N6C(=O)[C@@H](NC(=O)OC)C(C)C)[nH]c54)cc2-3)[nH]1)C(C)C", "pM", 20),
]

###

# assayProcedure: Inhibition of NS5A in HCV genotype 1b Con1 infected in human HuH7 replicon cells assessed as reduction in viral replication after 3 days by luciferase reporter gene assay
readoutType: EC50 (nM)

# querySmiles, readoutType, displayUnit, readoutValue
records = [
    ("COC[C@H]1C[C@@H](c2nc3ccc4cc5c(cc4c3[nH]2)OCc2cc(-c3cnc([C@@H]4C[C@H](C)CN4C(=O)[C@@H](NC(=O)OC)C(C)C)[nH]3)ccc2-5)N(C(=O)[C@@H](NC(=O)OC)C(C)C)C1", "EC50", "nM", 0.019),
    ("COC(=O)N[C@H](C(=O)N1CC2(CC2)C[C@H]1c1nc(-c2ccc3c(c2)C(F)(F)c2cc(-c4ccc5[nH]c([C@@H]6[C@H]7CC[C@H](C7)N6C(=O)[C@@H](NC(=O)OC)C(C)C)nc5c4)ccc2-3)c[nH]1)C(C)C", "EC50", "nM", 0.004),
    ("COC[C@H]1C[C@@H](c2ncc(-c3ccc4c(c3)COc3cc5c(ccc6nc([C@@H]7CCCN7C(=O)[C@@H](NC(=O)OC)C(C)C)[nH]c65)cc3-4)[nH]2)N(C(=O)[C@H](NC(=O)OC)c2ccccc2)C1", "EC50", "nM", 0.019),
    ("COC(=O)N[C@H](C(=O)N1C[C@@H](C)C[C@H]1c1nc2ccc3cc4c(cc3c2[nH]1)OCc1cc(-c2cnc([C@@H]3C[C@H](C)CN3C(=O)[C@H](NC(=O)OC)c3ccccc3)[nH]2)ccc1-4)C(C)C", "EC50", "nM", 0.03),
]
